PROTOCOL_NOTES: Rat Hepatocyte Stability (Test E)
Type: in vitro ADME
CONDITION_NOTES: rat, hepatocytes, geometric mean if run multiple times
Criterion: hepatocyte CLint strictly less than 20 µL/min/1e6 cells. Met: criterion met. Not met: criterion not met.

# input Decide: hepatocyte CLint of COc1cc(F)c(O[C@H]2CC[C@@H](C(=O)O)CC2)cc1C(=O)N[C@@H]1[C@H]2CC[C@H](C2)[C@@H]1C(=O)Nc1cc(C(F)(F)F)ccn1 [Example 14] strictly below 20 µL/min/1e6 cells?
# output criterion not met

# input Next record, please: COc1c(C#N)cc(O[C@H]2CC[C@@](C)(C(=O)O)CC2)cc1C(=O)N[C@@H]1[C@H]2CC[C@H](C2)[C@@H]1C(=O)NCC1(C)CCC1 [Example 404]
# output criterion met

# input Query COc1cc(F)c(O[C@H]2CC[C@@](C)(C(=O)O)CC2)cc1C(=O)N[C@@H]1CCC[C@@H]1C(=O)NCC(C)(C)C [Example 57] next
# output criterion met

# input Next compound up: COc1cc(F)c(-c2cccc(CCC(=O)O)c2)cc1C(=O)N[C@H]1[C@@H](C(=O)Nc2cccc(S(=O)(=O)C(F)(F)F)c2)[C@@H]2C=C[C@H]1C2 (racemic) [Example 282]
# output criterion met

# input Same again, this time with COc1ccc(O[C@H]2CC[C@@](C)(C(=O)O)CC2)cc1C(=O)N[C@@H]1[C@H]2CC[C@H](C2)[C@@H]1C(=O)NCC1(C)CCC1 [Example 381]
# output criterion not met

# input For COc1cc(F)c(O[C@H]2CC[C@@](CC#N)(C(=O)O)CC2)cc1C(=O)N[C@@H]1[C@H]2CC[C@H](C2)[C@@H]1C(=O)NCC1(C)CCC1 [Example 424] then?
# output criterion not met
